TARGET DESC: human LPA1 (Homo sapiens)
Construct: expressed in transfected cells; host or cells: Chinese hamster ovary (CHO) cells
ASSAY PROTOCOL: LPA1 functional antagonist assay (LPA-induced calcium flux)
Assay type: cell-based
ASSAY CONTEXT: read-out: hLPA1 IC50
pIC50: −log10 of the molar value.
Tag: yes (1) if measured pIC50 is not below 7, no (0) if it is.

Here are 2 compounds together with their reported answers.
1. Cc1nc(-c2nnn(C)c2COC(=O)N(C)C2CC(F)(F)C2)ccc1O[C@H]1CCC[C@@H](C(=O)O)C1
no (0)
2. Cc1nc(-c2nnn(C)c2COC(=O)N2CCCC(C)(C)C2)ccc1O[C@H]1CCC[C@H](C(=O)O)C1
no (0)

### Prompt Item Cc1nc(-c2nnn(C)c2COC(=O)N(C)Cc2ccncc2)ccc1O[C@H]1CCC[C@H](C(=O)O)C1 with pIC50 of 7 or above?
### Response no (0)

### Prompt Please indicate if the recorded pIC50 for C[C@H](C1CC1)N(C)C(=O)OCc1c(-c2ccc(O[C@H]3CCC[C@H](C(=O)O)C3)cc2)nnn1C meets or exceeds 7.
### Response yes (1)

* * *

TARGET DESC: human LPA1 (Homo sapiens)
Construct: expressed in transfected cells; host or cells: Chinese hamster ovary (CHO) cells
ASSAY PROTOCOL: LPA1 functional antagonist assay (LPA-induced calcium flux)
Format: cell-based
ASSAY CONTEXT: read-out: hLPA1 IC50
Provide the recorded IC50 for the entries that follow.
Numbers only, in nM.

1. Cc1nc(-c2nnn(C)c2COC(=O)N2CCC3(CC3)C2)ccc1O[C@H]1CCC[C@H](C(=O)O)C1
89
2. Cc1nc(-c2nnn(C)c2COC(=O)N(C)C2(C)CC2)ccc1O[C@H]1CCC[C@H](C(=O)O)C1
58

Hey, quick one: what's IC50 for each of these?
1. Cc1nc(-c2nnn(C)c2COC(=O)N(C)C2CC(F)(F)C2)ccc1O[C@H]1CCC[C@H](C(=O)O)C1
2. CC(C)CN(C)C(=O)OCc1c(-c2ccc(O[C@H]3CCC[C@H](C(=O)O)C3)cc2)nnn1C
3. CN(CC1CCC1)C(=O)OCc1c(-c2ccc(O[C@H]3CCC[C@H](C(=O)O)C3)c(F)c2)nnn1C
4. Cc1nc(-c2nnn(C)c2COC(=O)N2CC(C)C2)ccc1O[C@H]1CCC[C@H](C(=O)O)C1
5. Cc1nc(-c2nnn(C)c2COC(=O)N(C)Cc2ccccc2F)ccc1O[C@H]1CCC[C@H](C(=O)O)C1

### Response
[70, 440, 14, 231, 19]

* * *

TARGET DESC: human LPA1 (Homo sapiens, UniProt Q92633)
Construct: expressed in transfected cells; host or cells: Chinese hamster ovary (CHO) cells
Sequence (Q92633 whole entry): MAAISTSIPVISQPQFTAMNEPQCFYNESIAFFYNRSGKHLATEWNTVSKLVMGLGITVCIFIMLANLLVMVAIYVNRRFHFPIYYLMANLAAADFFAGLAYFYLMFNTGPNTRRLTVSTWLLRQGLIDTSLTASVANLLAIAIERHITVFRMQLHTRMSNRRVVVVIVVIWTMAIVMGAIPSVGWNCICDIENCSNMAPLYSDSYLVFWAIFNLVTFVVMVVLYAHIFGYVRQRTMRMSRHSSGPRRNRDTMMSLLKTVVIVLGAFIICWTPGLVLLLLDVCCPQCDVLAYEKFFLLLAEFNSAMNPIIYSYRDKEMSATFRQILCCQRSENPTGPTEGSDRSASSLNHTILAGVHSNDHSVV
ASSAY PROTOCOL: LPA1 functional antagonist assay (LPA-induced calcium flux)
Type: cell-based
ASSAY CONTEXT: CHO cells overexpressing human LPA1; inhibition of calcium flux induced by 10 nM LPA; read-out: hLPA1 IC50
Give measured IC50 for each item. Keep answers brief.
Note: a bare number is incomplete; add the unit.

Observe how each entry below is paired with its result.
1) CN(C(=O)OCc1c(-c2ccc(O[C@H]3CCC[C@H](C(=O)O)C3)c(C(F)F)n2)nnn1C)C1CCC1
22 nM
2) Cc1nc(-c2nnn(C)c2CCOC(=O)N(C)C2CCCC2)ccc1O[C@H]1CCC[C@H](C(=O)O)C1
72 nM
3) Cc1nc(-c2nnn(C)c2COC(=O)N(C)Cc2ccccc2)cnc1O[C@H]1CCC[C@H](C(=O)O)C1
60 nM

# context switch: different compound, same IC50
### Prompt Supply recorded IC50 for CN(C(=O)OCc1c(-c2ccc(O[C@H]3CCC[C@H](C(=O)O)C3)c(C#N)n2)nnn1C)C1CCC1 here.
### Response 23 nM
